Source: ChEMBL document CHEMBL4513216

# Tested on: Plasmodium berghei
# test: Screen against P. berghei liver stage (PbLuc), transformed with Luciferase, at 10uM
# Assay type: functional, HepG2
# conditions: tested at 10 uM
The whole screen tested about 69,000 compounds, of which about 8,600 (12%) showed an effect of 50% or more. The sample holds strong results, similar compounds and a random draw of the others, so the mix is not that of the screen.
Binary call on INHIBITION: rule met from 20% upward, rule not met beneath that.

Solved entries (count: 4):
[
  {
    "molecule": "O=C(O)c1ccccc1-c1ccc(CN2CC(O)C2)cc1",
    "assigned_label": "rule not met"
  },
  {
    "molecule": "CC1=N[C@@]2(CC[C@@H]3CN(CC(C)C)C[C@@H]32)C(=O)N1C",
    "assigned_label": "rule not met"
  },
  {
    "molecule": "CC(C)C1CCC(N2CCN(CCS(C)(=O)=O)CC2)CC1 (centres undefined)",
    "assigned_label": "rule met"
  },
  {
    "molecule": "Cn1nnnc1SC1CCCN(c2ccccc2Cl)C1=O (centres undefined)",
    "assigned_label": "rule not met"
  }
]

IN: Tell me whether INHIBITION is at least 20% here: O=C(NCc1cccnc1)c1nc2c(s1)CCCN2c1ncccn1
OUT: rule met

IN: Tell me whether INHIBITION is at least 20% here: CC(=O)N1CCCC1c1cccc(Cc2ccccc2F)n1 (centres undefined)
OUT: rule not met

IN: Tell me whether INHIBITION is at least 20% here: Cc1ccc(NCc2cn3c(n2)CN(Cc2ccc(C)o2)CC3)nn1
OUT: rule met

IN: Tell me whether INHIBITION is at least 20% here: Cc1ccc(CC(=O)N2CCC(Nc3ccc(C)nn3)CC2)cn1
OUT: rule not met

IN: Tell me whether INHIBITION is at least 20% here: COc1ccc2c(c1)CCCN2C(=O)NC1CCCCNC1=O (centres undefined)
OUT: rule met

IN: Tell me whether INHIBITION is at least 20% here: CC(C)(C)NC[C@@H]1CCC[C@@H]2CN(Cc3csnn3)C[C@@H]21
OUT: rule not met

IN: Tell me whether INHIBITION is at least 20% here: Cc1cnn(C2CN(CC(O)c3ccc4c(c3)OCCO4)C2)c1 (centres undefined)
OUT: rule met

IN: Tell me whether INHIBITION is at least 20% here: O=C1NCCCCC1NC(=O)N1CCCc2cc(F)ccc21 (centres undefined)
OUT: rule met

IN: Tell me whether INHIBITION is at least 20% here: O=C(CCc1nccs1)N1CCN(c2ccccn2)CC1
OUT: rule met

IN: Tell me whether INHIBITION is at least 20% here: CC1CCc2nn(CCNC(=O)C3CCCC3)c(=O)cc2C1 (centres undefined)
OUT: rule not met
